- System: TGFβ/SMAD signaling (SMAD2/3/4 complex), SBE-bla HEK 293T cells
- Experimental Protocol: SBE-bla antagonist assay
- Format: cell-based, human
- Measurement Conditions: read-out: IC50 in SBE-bla assay, DTC cluster k35.18; Figure 3B
Quantity: IC50

Exam item: // lookup IC50 for CN(C)C(=S)[S-].CN(C)C(=S)[S-].[Cu+2]
Marked response: 1620 nM

---

- System: TGFβ/SMAD signaling (SMAD2/3/4 complex), SBE-bla HEK 293T cells
- Experimental Protocol: SBE-bla antagonist assay
- Type: cell-based, human
- Measurement Conditions: Homo sapiens, HEK-293T, 5 h, read-out: SBE Antagonist IC50
Quantity: IC50 (µM)
The reply should contain only the number, in µM.

Exam item: // lookup IC50 for CCN(CC)C(=S)S [Sodium diethyldithiocarbamate]
Marked response: 11.5
